Every entry's value here was drawn from ChEMBL document CHEMBL2311263.

STUDY_TARGET: Mitogen-activated protein kinase 14 (Homo sapiens)
Sequence (Q16539 whole entry): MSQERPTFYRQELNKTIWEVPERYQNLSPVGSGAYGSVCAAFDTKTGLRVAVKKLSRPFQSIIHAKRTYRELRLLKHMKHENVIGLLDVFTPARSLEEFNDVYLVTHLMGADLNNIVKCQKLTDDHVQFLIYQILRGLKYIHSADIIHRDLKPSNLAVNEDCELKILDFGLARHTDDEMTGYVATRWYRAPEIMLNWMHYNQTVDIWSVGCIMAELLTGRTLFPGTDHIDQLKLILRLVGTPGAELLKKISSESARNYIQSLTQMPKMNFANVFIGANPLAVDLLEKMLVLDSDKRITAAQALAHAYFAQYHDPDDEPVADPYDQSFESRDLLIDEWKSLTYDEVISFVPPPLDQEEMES
PROTOCOL_SUMMARY: Inhibition of p38alpha MAP kinase in whole blood (unknown origin) assessed as lipopolysaccharide-stimulated TNF-alpha release by ELISA
pIC50: −log10 of the molar value.
MEASURE_NAME: pIC50

(a) O=C1c2ccc(Nc3cc(NC(=O)C4CCOC4)c(F)cc3F)cc2CCc2ccc(OCCN3CCOCC3)cc21 (stereo unspecified)
(b) CC1(C)OC[C@H](COc2ccc3c(c2)C(=O)c2ccc(Nc4ccc(F)c(NC(=O)c5cccs5)c4)cc2CC3)O1
(c) CNC(=O)CC[C@H](NC(=O)c1ccc2c(c1)C(=O)c1ccc(Nc3ccc(F)cc3F)cc1CC2)C(=O)NC
(d) C[C@@H](NC(=O)c1ccc2c(c1)C(=O)c1ccc(Nc3ccc(F)cc3F)cc1CC2)C1CCCCC1
Enquiry: Number of compounds to sort: 4. Sort criterion: pIC50, ascending. Reply with the labels, ordered as the question asks.
Return: d, b, a, c

(I) O=C(Nc1cc(Nc2ccc3c(c2)CCc2ccc(OCCN4CCOCC4)cc2C3=O)ccc1F)c1ccoc1
(II) O=C(Nc1cc(Nc2ccc3c(c2)CCc2ccc(OC[C@H](O)CO)cc2C3=O)ccc1F)c1cccs1
Enquiry: Parameter check: reported pIC50 is higher for which label, I or II ? Returns: label corresponding to the selected item.
Return: II
(II: 7.38, I: 6.96)

(A) NC(=O)c1ccc2c(c1)C(=O)c1ccc(Nc3ccc(F)cc3F)cc1CC2
(B) COC(=O)c1ccc2c(c1)C(=O)c1ccc(Nc3ccc(F)cc3F)cc1CC2
Enquiry: Parameter check: reported pIC50 is higher for which label, A or B ? Returns: label corresponding to the selected item.
Return: A

(1) O=C(NCC(O)CO)c1ccc2c(c1)C(=O)c1ccc(Nc3ccc(F)cc3F)cc1CC2 (stereo unspecified)
(2) CN(C)CCNC(=O)c1ccc2c(c1)C(=O)c1ccc(Nc3ccc(F)cc3F)cc1CC2
Enquiry: Kindly compare 1 with 2 and tell me which has the lower pIC50 figure. Returns: label corresponding to the selected item.
Return: 1
(1: 7.54, 2: 7.74)

(a) O=C(Nc1cc(Nc2ccc3c(c2)CCc2ccc(OCCO)cc2C3=O)ccc1F)c1ccccc1
(b) Cc1cc(F)c(NC(=O)C2CCOC2)cc1Nc1ccc2c(c1)CCc1ccc(OCCN3CCOCC3)cc1C2=O (stereo unspecified)
Enquiry: Parameter check: reported pIC50 is higher for which label, a or b ? Returns: label corresponding to the selected item.
Return: b

(A) O=C(Nc1cc(Nc2ccc3c(c2)CCc2ccccc2C3=O)c(F)cc1F)c1ccccc1
(B) CCOC(=O)CNC(=O)c1ccc2c(c1)C(=O)c1ccc(Nc3ccc(F)cc3F)cc1CC2
(C) O=C1c2ccc(Nc3ccc(F)c(NC(=O)C4CCOC4)c3)cc2CCc2ccc(OCCO)cc21 (stereo unspecified)
(D) O=C(NC(CO)CO)c1ccc2c(c1)C(=O)c1ccc(Nc3ccc(F)cc3F)cc1CC2
Enquiry: Parameters: sort_field (pIC50), sort_dir (desc). Reply with the labels, ordered as the question asks.
Return: D, B, A, C
(D: 7.77, B: 7.02, A: 6.54, C: 5.82)

(A) CCCOC(=O)c1ccc2c(c1)C(=O)c1ccc(Nc3ccc(F)cc3F)cc1CC2
(B) O=C(NCCF)c1ccc2c(c1)C(=O)c1ccc(Nc3ccc(F)cc3F)cc1CC2
(C) O=C(NCCO)c1ccc2c(c1)C(=O)c1ccc(Nc3ccc(F)cc3F)cc1CC2
(D) O=C(O)c1ccc2c(c1)C(=O)c1ccc(Nc3ccc(F)cc3F)cc1CC2
Enquiry: Parameters: sort_field (pIC50), sort_dir (desc). Reply with the labels, ordered as the question asks.
Return: C, B, A, D

(A) O=C(OCCO)c1ccc2c(c1)C(=O)c1ccc(Nc3ccc(F)cc3F)cc1CC2
(B) O=C(NCCCl)c1ccc2c(c1)C(=O)c1ccc(Nc3ccc(F)cc3F)cc1CC2
(C) COC(=O)[C@H](CC(C)C)NC(=O)c1ccc2c(c1)C(=O)c1ccc(Nc3ccc(F)cc3F)cc1CC2
(D) Cc1cc(F)c(NC(=O)c2ccoc2)cc1Nc1ccc2c(c1)CCc1ccc(OCCN3CCOCC3)cc1C2=O
Enquiry: Parameters: sort_field (pIC50), sort_dir (desc). Reply with the labels, ordered as the question asks.
Return: D, B, A, C
